Target desc: BRD4 (Homo sapiens, UniProt O60885)
Construct: 45 nM His-Brd4(44-477) all proteins produced in-house
Assay procedure: TR-FRET in-vitro binding assay for BRD4
Test parameters: Biochemical IC50 values, His-Brd4(44-477)
Listed below: IC50 values for each entry.

Answered cases to consult:
Cc1nn(C2CC2)c2c1[C@H](c1ccc(Cl)cc1)N(c1cc(Cl)c(=O)n(C)c1)C2=O    > 6.7 µM
Cc1cc(N2C(=O)c3nn(C4CC4)c(C)c3[C@@H]2c2ccc(Cl)cc2)cn(C)c1=O    > 6.7 µM

Value lookup for IC50; key = `Cc1cc(N2C(=O)c3nn(C)cc3[C@@H]2c2ccc(Cl)cc2)cn(C)c1=O` > 6.7 µM
